system: Escherichia coli; test: Antibacterial activity against clinically isolated Escherichia coli DE17 assessed as inhibition of bacterial growth measured after 16 to 24 hrs by broth microdilution method; format: functional; settings: time 16-24 hrs, read-out: MIC100
Quantity Kind: MIC

Reference set, count: 4
CN(C)CCCCOc1cc(=O)oc2ccccc12; > 256 µg/mL
CN(C)CCCCCCCCOc1cc(=O)oc2ccccc12; > 256 µg/mL
CCN(CC)CCCCOc1cc(=O)oc2ccccc12; > 256 µg/mL
CCN(CC)CCCCCCCCOc1ccc2ccc(=O)oc2c1; > 256 µg/mL

MIC in this record for CN(C)CCCCOc1ccc2ccc(=O)oc2c1 : > 256 µg/mL

MIC in this record for CCN(CC)CCCCCCCCCCCCOc1ccc2ccc(=O)oc2c1 : > 256 µg/mL

MIC in this record for CCCCN(CCCC)CCCCCCCCCCCCOc1ccc2ccc(=O)oc2c1 : > 256 µg/mL

MIC in this record for CN(C)CCCCCCCCCCCCOc1ccc2ccc(=O)oc2c1 : > 256 µg/mL

MIC in this record for CCCCN(CCCC)CCCCCCCCOc1ccc2ccc(=O)oc2c1 : > 256 µg/mL

MIC in this record for O=c1ccc2ccc(O)cc2o1 [UMBELLIFERONE] : > 256 µg/mL

MIC in this record for CCCCN(CCCC)CCCCOc1cc(=O)oc2ccccc12 : > 256 µg/mL

MIC in this record for CCCCN(CCCC)CCCCCCCCCCCCOc1cc(=O)oc2ccccc12 : > 256 µg/mL
